# Test system: NCI-H23
# experimental_details: NCI tumour cell line growth inhibition, 48 h
The source made the active and inactive calls. Rule as the data show it: active = GI50 up to about 1.1 µM and inactive = higher.
Outcome codes: class 1 = active, class 0 = inactive

compound	label_value
C=C1C2CCC3(CCC4C5(C)CCCC4(C=[N+](CCO)C5)C3C2)C1O (stereo not given)	class 0
CC(C)C1=C(O)C(=O)C2=C(C1=O)C(O)CC1C(C)(C)CCCC21C (stereo not given)	class 0
O=C(Cc1nc2sc3c(c2c(=O)[nH]1)CCCC3)Nc1ccccc1	class 0
COc1ccccc1N1C(=O)/C(=C/c2ccc(N(CCC#N)CCC#N)cc2C)N=C1c1cc([N+](=O)[O-])ccc1Cl	class 0
CCN(CC)CCC1(C(=O)OC)SCCc2ccc(C)cc21 (stereo not given)	class 0
CCn1c(=N)sc2nc3ccccc3n2c1=O	class 0
Cc1cc(=O)nc(S(=O)(=O)NC(=S)Nc2ccc(Cl)cc2)[nH]1	class 0
CCC(C)C(=O)O[C@H]1C(=O)O[C@@H]2C[C@H]3C(C)=CC(=O)[C@@H](O)[C@]3(C)[C@H]3[C@@H](O)[C@H](O)[C@@]4(C)OC[C@]32[C@@H]14 (stereo not given in full)	class 1
C=C(COC(C)=O)CC(/C=C(\C)CCC=C(C)C)OC(C)=O (stereo not given)	class 0
O=C(O)CO/N=C1/C(=C2/C(=O)Nc3ccccc32)Nc2ccccc21	class 0
CC12CCC(=O)[C@@]1(C)CCCC2O (stereo not given in full)	class 0
CC(C)C(C/C=C1\CC(CO)(COC(=O)CC(C(C)C)C(C)C)OC1=O)C(C)C (stereo not given)	class 0
COc1cc2oc(-c3ccc(O)cc3)c(OC3OC(C)C(O)C(O)C3O)c(=O)c2c(O)c1OC (stereo not given)	class 0
Oc1nncc2[nH]c(-c3ccccc3)cc12	class 0
CCCCCCCCCCCCCCCCCC(=O)OCC(C[As](=O)(O)O)OC(=O)CCCCCCCCCCCCCCCCC (stereo not given)	class 0
COC(=O)C12C3C4(C(=O)OC)C1C1(C(=O)OC)C2C3(C(=O)OC)C41C(=O)N(C(C)C)C(C)C (stereo not given)	class 0
COC(=O)c1c2c(cc3c1CC1(C3)Cc3ccc4c(c3C1=O)CCC4)CCC2 (stereo not given)	class 0
O=P1(c2ccccc2)C(c2ccccc2)CCC1c1ccccc1 (stereo not given)	class 0
Cc1cc(N2CCCC2)c([N+](=O)[O-])cc1[N+](=O)[O-]	class 0
CCN(CC)CCN1C(=O)CC2[C@@H]3CCc4cc(OC)ccc4C3CC[C@]2(C)C1=O (stereo not given in full)	class 0
CCCCCCCCCCCCCCCCNc1nc(=O)n(C2CC(O)C(COP(=O)(O)OC3CC(n4cc(F)c(=O)[nH]c4=O)OC3CO)O2)cc1F (stereo not given)	class 1
COC(=O)/C=C1\C(=O)N(C(C)=O)c2ccccc21	class 0
O=[N+]([O-])c1cc(-c2nnc(C34CC5CC(CC(C5)C3)C4)o2)cc([N+](=O)[O-])c1	class 0
COC(=O)c1ccccc1NC(=O)/C(=N\NC(C)(C)C)C(C#N)c1nc(-c2ccc([N+](=O)[O-])cc2)cs1 (stereo not given)	class 0
O=C(O)c1cc(O)c2c(c1)C([C@@H]1c3cccc(O)c3C(=O)c3c(O)cc(C(=O)O)cc31)c1cccc(O)c1C2=O (stereo not given in full)	class 0
O=C(O)C(O)Cc1ccccn1 (stereo not given)	class 0
CCC(C)C(=O)OC1CC2(C)C(c3ccoc3)OC(=O)CC23OC2(C)OC34C(OC(=O)C(C)C)C3(O)C(OC(=O)C5(C)OC5C)C5(C)CC3(O)C(C)(C5CC(=O)OC)C14O2 (stereo not given)	class 0
C/C(=N/NS(=O)(=O)c1ccccc1)c1cccc[n+]1[O-]	class 0
CCOC(=O)Cc1csc(N/N=C2\C(=O)Nc3ccccc32)n1	class 0
CC(=O)Oc1ccc(C(c2ccc(OC(C)=O)cc2)c2ccccn2)cc1	class 0
C[S+](C)CC1OC(n2cnc3c(N)ncnc32)C(O)C1O (stereo not given)	class 0
O=S1(=O)OCCOS(=O)(=O)C1(F)Cc1ccccc1	class 0
C#CCNCC(=O)O	class 0
C=CCCCn1ccc2ccccc21	class 0
CCCCCCCCCCCCOP(=O)(O)OP(=O)(O)OCC1OC(n2cc(C)c(=O)[nH]c2=O)CC1O (stereo not given)	class 0
CC(=O)OC1(Sc2ccccc2)CC2[C@H]3COC(C)(C)O[C@H]3CC[C@@]2(C)CC1=O (stereo not given in full)	class 0
CN(C)CCC1(C2=CCCC2)CC/C(=C\c2ccc(Cl)cc2)C1=O (stereo not given)	class 0
NS(=O)(=O)c1ccc(-c2ccc([As](=O)(O)O)cc2)cc1	class 0
CC(=O)NC1=C(C)C(=O)c2c(nc3n2CCC3OC(=O)c2ccccc2)C1=N (stereo not given)	class 0
CC(C)(C)OC(=O)NC1CC=CCC1NC(=O)OC(C)(C)C (stereo not given)	class 0

---

# Tested on: OVCAR-5
# experimental_details: NCI tumour cell line growth inhibition, 48 h
The source made the active and inactive calls. Cut-off read from the data, not from the text of the source: active = GI50 up to about 1.1 µM and inactive = higher.
Measured GI50 accompanies every entry in the list below.
observed_property: GI50

                                   molecule       value_measured
0  c1cc2c3c(c1)[C@@H]1O[C@@H]1c1cccc(c1-3)[C@@H]1O[C@H]21   16.5 µM (inactive)
1  Cc1ccc2c3c1[C@@H]1O[C@@H]1c1cccc(c1-3)[C@@H]1O[C@H]21   18.1 µM (inactive)
2  COC(=O)C(Cc1ccc(N(C)C)cc1)(NC(=O)c1ccccc1)P(=O)(OC)OC (centres undefined)  > 100 µM (inactive)
3  CC(NNC(=O)c1ccncc1)c1ccc(Cl)cc1Cl (centres undefined)  > 100 µM (inactive)
4  CC1(C)C/N=C/C(C)(OCc2ccccc2)C(=O)NC(C)(C)C/N=C/C(C)(OCc2ccccc2)C(=O)N1 (centres undefined)   > 10 µM (inactive)
5  CC(=O)N1C(c2[nH]c3ccccc3c2Cc2ccccc2)CCN1c1ccccc1 (centres undefined)   > 10 µM (inactive)
6  CC#C[C@]1(O)CCC2[C@@H]3CCC4=CC(=O)CCC4=C3[C@@H](c3ccc(N(C)C)cc3)C[C@@]21C (some centres undefined)   22.7 µM (inactive)
7       O=C(O)CNC(=O)c1ccc([As](=O)(O)O)cc1  > 100 µM (inactive)
8    CC(C)(CN1CCCCC1)C(=O)/C=C/c1ccc(Cl)cc1   11.4 µM (inactive)

---

# Tested on: HOP-92
# experimental_details: NCI tumour cell line growth inhibition, 48 h
Active and inactive are the calls of the source. Cut-off read from the data, not from the text of the source: active = GI50 up to about 1.1 µM and inactive = higher.
observed_property: GI50

In [3]: df
Out[3]:
                                   molecule  observed_property        value_measured
0                     C[Si](C)(C)/C(I)=C/CO               GI50      24 µM (inactive)
1      Nc1nc(N)c2nn(-c3ccc(C(=O)O)cc3)nc2n1               GI50   > 100 µM (inactive)
2                 OC/C=C(\I)CCCOCOCc1ccccc1               GI50    15.7 µM (inactive)
3  CSCCC(NC(=O)OC(C)(C)C)C(=O)NCCNc1ccc(NCCNC(=O)C(CCSC)NC(=O)OC(C)(C)C)c2c1C(=O)c1ccccc1C2=O (stereo not given)               GI50    3.93 µM (inactive)
4  C[n+]1ccc(-c2cc[n+](C)cc2)cc1 [PARAQUAT DICHLORIDE]               GI50  > 44.5 µM (inactive)
5  O=C(c1ccc(Br)cc1)n1c2ccc(Br)cc2c2nc3ccccc3nc21               GI50   > 100 µM (inactive)
6  COC1=NN2C(OC)(c3ccccc3)c3c(-c4ccccc4)sc(-c4ccccc4)c3C2(c2ccccc2)S1 (stereo not given)               GI50   > 100 µM (inactive)
7  O=C(O)c1cccc(/[As]=[As]\c2cccc(C(=O)O)c2)c1 (stereo not given)               GI50    18.7 µM (inactive)
8  C=C(CS(=O)(=O)c1ccccc1)[P+](c1ccccc1)(c1ccccc1)c1ccccc1               GI50    24.5 µM (inactive)
9  Clc1ccccc1C1SCc2nc3ccccc3n21 (stereo not given)               GI50    8.79 µM (inactive)

---

Measured GI50 accompanies every entry in the list below.
# Test system: NCI-H23
# experimental_details: NCI tumour cell line growth inhibition, 48 h
Calls of active or inactive are those of the source. No stated cut-off is given here; in the data, active = GI50 up to about 1.1 µM and inactive = higher.
observed_property: GI50

In [3]: df
Out[3]:
                                   molecule       value_measured
0  COc1ccc(/N=N/c2c(-c3ccccc3)nn(C(=O)CC(=O)Nc3ccccc3Cl)c2-c2ccccc2)cc1  > 100 µM (inactive)
1  C=C(C)CC1=C(OCC)C(OC)(OCC)C1=O (stereo not given)  > 100 µM (inactive)
2      O=C(O)c1cc(/C=C/c2ccc(O)c(O)c2)ccc1O  > 100 µM (inactive)
3  O=c1c(-c2ccc3c(c2)OCO3)coc2c3c(ccc12)OCO3   19.2 µM (inactive)
4  Cc1ccc(NC(=O)/C(=N/NC(=O)CC#N)C2C(=O)N(c3ccccc3)N=C2N)cc1C (stereo not given)  > 100 µM (inactive)
5  CCC(Oc1ccc(OC)c2ccccc(=O)c12)C(=O)O (stereo not given)  > 100 µM (inactive)
6    N=C(N)c1ccc2oc3ccc(C(=N)N)cc3c(=O)c2c1  > 100 µM (inactive)
7  COC(=O)C(=O)OC1(C(C)=O)CC2(c3ccccc3)OC1(c1ccccc1)c1ccccc12 (stereo not given)   17.2 µM (inactive)
8  CC(C)(O)C1CC(=O)C(C)(C2C(O)CC3(C)C4CC=C5C(CCC(O)C5(C)C)C4(C)C(=O)CC23C)O1 (stereo not given)  > 100 µM (inactive)
9  COc1ccc2nc(NC(=O)C(=O)CC(=O)c3ccc(Cl)cc3)sc2c1  > 100 µM (inactive)

Where do these numbers come from? They come from ChEMBL document CHEMBL1201862.
